B1: HDAC6 (parent)
chain: QYMNEGELRVLADTYDSVYLHPNS

variants of: B1; assay: protein stability index of a GFP-peptide fusion (GPS, HEK-293T) (PSI 1-6); higher = more stable; details: c terminus: a fixed tail appended;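 further: lentivirally expressed fusions sorted by FACS into six bins by GFP to DsRed ratio, PSI derived from sequencing read proportions per bin multiplied by bin number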
endpoint label: protein stability index
Give the figure by itself; no unit, no explanation.

A selection of reference data follows.
- QYMNEGELRVFADTYDSVYLHPNS [L11F]: 2.01
- QYMNHGELRVLADTYDSVYLHPNS [E5H]: 2.91
- QYMNEGEKRVLADTYDSVYLHPNS [L8K]: 3

Let me know recorded protein stability index for QYMNEGELRVLTDTYDSVYLHPNS [A12T] , thanks.
2.54

Let me know recorded protein stability index for QYMNEGELRVLADTYDSVYLHVNS [P22V] , thanks.
1.83

Let me know recorded protein stability index for QYMNELELRVLADTYDSVYLHPNS [G6L] , thanks.
2.51

Let me know recorded protein stability index for QYMNEGELRVLADTYDYVYLHPNS [S17Y] , thanks.
1.47

Let me know recorded protein stability index for QYMNEGELRVLADTYDSVYHHPNS [L20H] , thanks.
3

Let me know recorded protein stability index for QYMNEGELRVEADTYDSVYLHPNS [L11E] , thanks.
2.36

Let me know recorded protein stability index for QYMNEGELRVLADTYDLVYLHPNS [S17L] , thanks.
2.02

Let me know recorded protein stability index for QYMNEGEQRVLADTYDSVYLHPNS [L8Q] , thanks.
2.66

Let me know recorded protein stability index for QYMNEGELRVLADTYDSVYMHPNS [L20M] , thanks.
2.14
